This listing pairs molecules with measured microsomal CLint.
Assay: Metabolic stability in human liver microsomes assessed as disappearance of parent compound
Type: ADME, Microsome
Conditions: read-out: CLH
measurementKind: microsomal CLint

chemsmiles=FC(F)c1nnc(-c2ccc(Cn3nnc(-c4ccc(Cl)cc4)n3)nc2)o1 result="< 3 µL/min/mg"
chemsmiles=COc1cccc(CNC(=O)c2csc(-c3nnn(Cc4ccc(-c5nnc(C(F)F)o5)cc4)n3)c2)c1 result="160 µL/min/mg"
chemsmiles=FC(F)c1nnc(-c2ccc(Cn3nnc(-c4cccnc4)n3)nc2)o1 result="< 3 µL/min/mg"
chemsmiles=FC(F)c1nnc(-c2ccc(Cn3nnc(-c4ccccn4)n3)nc2)o1 result="< 3 µL/min/mg"
chemsmiles=FC(F)c1nnc(-c2ccc(Cn3nnc(-c4ccccn4)n3)cn2)o1 result="< 3 µL/min/mg"

* * *

Below, each entry is listed alongside its reported pEC50.
Target: Protein deacetylase HDAC6 (Homo sapiens)
Sequence (Q9UBN7 whole entry): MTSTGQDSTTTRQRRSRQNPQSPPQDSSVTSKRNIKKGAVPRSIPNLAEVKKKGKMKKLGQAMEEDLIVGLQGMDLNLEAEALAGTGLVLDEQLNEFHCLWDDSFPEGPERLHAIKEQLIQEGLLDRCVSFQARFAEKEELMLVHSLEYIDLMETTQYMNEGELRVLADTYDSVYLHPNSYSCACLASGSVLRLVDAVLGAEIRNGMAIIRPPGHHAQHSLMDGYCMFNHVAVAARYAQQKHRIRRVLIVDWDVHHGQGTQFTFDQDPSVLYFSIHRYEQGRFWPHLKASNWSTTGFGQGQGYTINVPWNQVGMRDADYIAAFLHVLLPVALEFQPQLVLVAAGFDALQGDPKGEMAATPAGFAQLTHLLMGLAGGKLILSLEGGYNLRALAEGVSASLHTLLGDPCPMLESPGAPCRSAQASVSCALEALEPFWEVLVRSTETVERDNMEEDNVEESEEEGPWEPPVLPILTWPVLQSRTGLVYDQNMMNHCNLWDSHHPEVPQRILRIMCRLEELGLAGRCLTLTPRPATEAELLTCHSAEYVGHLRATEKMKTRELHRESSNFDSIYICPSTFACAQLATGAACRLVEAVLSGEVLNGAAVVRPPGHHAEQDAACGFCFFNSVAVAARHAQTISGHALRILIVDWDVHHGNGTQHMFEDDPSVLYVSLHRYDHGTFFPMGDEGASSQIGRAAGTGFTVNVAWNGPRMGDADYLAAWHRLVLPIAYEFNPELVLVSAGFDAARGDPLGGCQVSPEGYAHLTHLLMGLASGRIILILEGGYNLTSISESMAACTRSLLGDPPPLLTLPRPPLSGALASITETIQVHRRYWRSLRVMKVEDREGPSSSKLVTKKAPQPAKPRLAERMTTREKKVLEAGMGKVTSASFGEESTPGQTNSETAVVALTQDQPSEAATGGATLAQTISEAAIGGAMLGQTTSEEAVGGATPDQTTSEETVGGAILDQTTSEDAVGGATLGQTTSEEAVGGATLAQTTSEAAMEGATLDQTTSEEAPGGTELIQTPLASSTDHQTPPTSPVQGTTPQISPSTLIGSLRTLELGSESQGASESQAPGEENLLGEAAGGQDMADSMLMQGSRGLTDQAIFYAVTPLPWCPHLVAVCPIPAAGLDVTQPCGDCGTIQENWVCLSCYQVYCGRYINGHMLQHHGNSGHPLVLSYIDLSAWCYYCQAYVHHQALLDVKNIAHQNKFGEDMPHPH
Test: Inhibition of HDAC6 in human BEAS-2B cells assessed as deacetylation of acetylated alpha-tubulin level incubated for 24 hrs by Western blot analysis
Assay type: cell-based
pEC50: −log10 of the molar value.
measurementKind: pEC50

compound=FC(F)c1nnc(-c2ccc(Cn3nnnc3-c3ccccn3)cc2)o1 comparisonoperator=< quantitativereadout=5.00
compound="CS(=O)(=O)NCC(Nc1ncc(-c2nnc(C(F)F)o2)cn1)c1ccc(OC(F)(F)F)cc1 (stereo not given)" comparisonoperator== quantitativereadout=7.20
compound=FC(F)c1nnc(-c2cnc(Cn3nnc(-c4ccccn4)n3)nc2)o1 comparisonoperator== quantitativereadout=5.80
compound=FC(F)c1nnc(-c2ccc(Cn3nnc(-c4ccc(Cl)cc4)n3)nc2)o1 comparisonoperator== quantitativereadout=5.90
compound=Fc1cc(-c2nnc(C(F)F)o2)cc(F)c1Cn1nnc(-c2ccccn2)n1 comparisonoperator== quantitativereadout=5.50
compound=O=C(NO)c1cc(F)c(Cn2nnc(-c3ccccn3)n2)c(F)c1 comparisonoperator== quantitativereadout=7.70
compound=O=C(NO)c1cnc(NC2(c3ccccc3)CCC(F)(F)CC2)nc1 comparisonoperator== quantitativereadout=7.10
compound=FC(F)c1nnc(-c2ccc(Cn3nnc(-c4ccccc4Cl)n3)nc2)o1 comparisonoperator== quantitativereadout=6.40
compound=CNC(=O)c1csc(-c2nnn(Cc3ccc(-c4nnc(C(F)F)o4)cc3)n2)c1 comparisonoperator== quantitativereadout=6.30
compound=COc1cccc(-c2nnn(Cc3ccc(-c4nnc(C(F)F)o4)cn3)n2)c1 comparisonoperator== quantitativereadout=6.50

* * *

Experiment: Clearance in C57/BI mouse at 0.5 mg/kg, iv measured upto 24 hrs by LC-MS/MS analysis
Type: ADME, organism-based
Settings: in vivo
measurementKind: clearance

chemsmiles=FC(F)c1nnc(-c2ccc(Cn3nnc(-c4ccccn4)n3)nc2)o1 result="2.4 mL/min/kg"

* * *

Experiment: Plasma protein binding in rat assessed as unbound fraction
Assay type: ADME, cell-free
measurementKind: fraction unbound

chemsmiles=FC(F)c1nnc(-c2ccc(Cn3nnc(-c4ccccn4)n3)nc2)o1 quantitativereadout=0.38

* * *

Target: Protein deacetylase HDAC6 (Homo sapiens)
Assay: Inhibition of HDAC6 in human BEAS-2B cells assessed as deacetylation of acetylated alpha-tubulin level incubated for 24 hrs by Western blot analysis
Format: cell-based
measurementKind: IC50 (nM)

chemsmiles=COc1cccc(CNC(=O)c2csc(-c3nnn(Cc4ccc(-c5nnc(C(F)F)o5)cc4)n3)c2)c1 experimentalsystem="Protein deacetylase HDAC6 (Homo sapiens)" quantitativereadout=10
chemsmiles=COc1cccc(CNC(=O)c2csc(-c3nnn(Cc4ccc(C(=O)NO)cc4)n3)c2)c1 experimentalsystem="Protein deacetylase HDAC6 (Homo sapiens)" quantitativereadout=200

* * *

Biological target: Histone deacetylase 7 (Homo sapiens, UniProt Q8WUI4)
Sequence (Q8WUI4 whole entry): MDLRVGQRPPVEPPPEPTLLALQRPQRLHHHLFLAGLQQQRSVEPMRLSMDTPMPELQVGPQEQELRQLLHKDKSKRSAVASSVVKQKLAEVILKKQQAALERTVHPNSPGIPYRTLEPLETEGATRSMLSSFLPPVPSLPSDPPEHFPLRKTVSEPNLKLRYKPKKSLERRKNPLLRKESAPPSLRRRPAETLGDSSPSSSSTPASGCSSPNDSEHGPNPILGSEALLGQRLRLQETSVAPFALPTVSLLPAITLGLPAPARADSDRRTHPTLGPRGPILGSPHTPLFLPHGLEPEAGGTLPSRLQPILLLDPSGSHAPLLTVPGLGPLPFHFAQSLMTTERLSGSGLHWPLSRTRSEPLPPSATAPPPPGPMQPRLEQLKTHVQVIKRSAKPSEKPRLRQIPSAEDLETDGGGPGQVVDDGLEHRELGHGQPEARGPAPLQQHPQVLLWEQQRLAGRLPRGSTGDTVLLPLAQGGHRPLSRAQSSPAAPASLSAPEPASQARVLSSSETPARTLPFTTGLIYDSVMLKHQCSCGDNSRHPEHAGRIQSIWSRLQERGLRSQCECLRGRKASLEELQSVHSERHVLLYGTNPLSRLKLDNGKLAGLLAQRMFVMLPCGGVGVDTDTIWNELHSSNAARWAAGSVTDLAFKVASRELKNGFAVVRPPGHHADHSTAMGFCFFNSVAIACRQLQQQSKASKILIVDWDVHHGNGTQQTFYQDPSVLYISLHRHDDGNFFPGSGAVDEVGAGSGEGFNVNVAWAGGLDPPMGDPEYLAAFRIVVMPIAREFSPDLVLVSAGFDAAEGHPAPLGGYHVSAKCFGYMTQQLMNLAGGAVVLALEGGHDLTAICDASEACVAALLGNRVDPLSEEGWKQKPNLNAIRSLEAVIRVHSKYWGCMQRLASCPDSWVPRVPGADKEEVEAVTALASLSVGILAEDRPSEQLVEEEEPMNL
Assay: Inhibition of human recombinant HDAC7 incubated for 30 mins by fluorimetry analysis
pIC50: −log10 of the molar value.
Reported pIC50 values are given for each entry in this list.
measurementKind: pIC50

compound=COc1ccccc1-c1nnn(Cc2ccc(-c3nnc(C(F)F)o3)cn2)n1 experimentalsystem="Histone deacetylase 7 (Homo sapiens, UniProt Q8WUI4)" comparisonoperator=< quantitativereadout=4.00
compound="CS(=O)(=O)NCC(Nc1ncc(-c2nnc(C(F)F)o2)cn1)c1ccc(OC(F)(F)F)cc1 (centres undefined)" experimentalsystem="Histone deacetylase 7 (Homo sapiens, UniProt Q8WUI4)" comparisonoperator== quantitativereadout=4.52
compound=O=C(NO)c1cnc(NC2(c3ccccc3)CCC(F)(F)CC2)nc1 experimentalsystem="Histone deacetylase 7 (Homo sapiens, UniProt Q8WUI4)" comparisonoperator== quantitativereadout=5.19
compound=FC(F)c1nnc(-c2ccc(Cn3nnc(-c4ccccn4)n3)nc2)o1 experimentalsystem="Histone deacetylase 7 (Homo sapiens, UniProt Q8WUI4)" comparisonoperator=< quantitativereadout=4.00
